Molecular target: T1, PSME2 (peptide code PSME2-001) peptide on HLA-A*02:01 (human)
T1 peptide: KVLERVNAV
Experiment: cytokine release

binder	binding result
R26P3H1 (TCR, V domains shown) Valpha: AQSVAQPEDQVNVAEGNPLTVKCTYSVSGNPYLFWYVQYPNRGLQFLLKYITGDNLVKGSYGFEAEFNKSQTSFHLKKPSALVSDSALYFCAVRDMNRDDKIIFGKGTRLHILP Vbeta: DGGITQSPKYLFRKEGQNVTLSCEQNLNHDAMYWYRQDPGQGLRLIYYSQIVNDFQKGDIAEGYSVSREKKESFPLTVTSAQKNPTAFYLCASSRAEGGEQYFGPGTRLTVT	no recognition
R37P1H1 (TCR, V domains shown) Valpha: AQTVTQSQPEMSVQEAETVTLSCTYDTSESNYYLFWYKQPPSRQMILVIRQEAYKQQNATENRFSVNFQKAAKSFSLKISDSQLGDTAMYFCAFGYSGGGADGLTFGKGTHLIIQP Vbeta: DAGVTQSPTHLIKTRGQQVTLRCSPKSGHDTVSWYQQALGQGPQFIFQYYEEEERQRGNFPDRFSGHQFPNYSSELNVNALLLGDSALYLCASSNEGQGWEAEAFFGQGTRLTVV	no recognition
R26P2A6 (TCR, V domains shown) Valpha: QKEVEQDPGPLSVPEGAIVSLNCTYSNSAFQYFMWYRQYSRKGPELLMYTYSSGNKEDGRFTAQVDKSSKYISLFIRDSQPSDSATYLCAMSDVSGGYNKLIFGAGTRLAVHP Vbeta: EAQVTQNPRYLITVTGKKLTVTCSQNMNHEYMSWYRQDPGLGLRQIYYSMNVEVTDKGDVPEGYKVSRKEKRNFPLILESPSPNQTSLYFCASTTPDGTDEQFFGPGTRLTVL	no recognition
